molecular target: T1, full-length recombinant human PAD4 (human, UniProt Q9UM07 1-663); experiment: ELISA, coated human PAD4; antibody 0.0039063 ug/mL
T1 construct: Full-length recombinant; also called peptidylarginine deiminase 4
T1 sequence (Q9UM07 whole entry): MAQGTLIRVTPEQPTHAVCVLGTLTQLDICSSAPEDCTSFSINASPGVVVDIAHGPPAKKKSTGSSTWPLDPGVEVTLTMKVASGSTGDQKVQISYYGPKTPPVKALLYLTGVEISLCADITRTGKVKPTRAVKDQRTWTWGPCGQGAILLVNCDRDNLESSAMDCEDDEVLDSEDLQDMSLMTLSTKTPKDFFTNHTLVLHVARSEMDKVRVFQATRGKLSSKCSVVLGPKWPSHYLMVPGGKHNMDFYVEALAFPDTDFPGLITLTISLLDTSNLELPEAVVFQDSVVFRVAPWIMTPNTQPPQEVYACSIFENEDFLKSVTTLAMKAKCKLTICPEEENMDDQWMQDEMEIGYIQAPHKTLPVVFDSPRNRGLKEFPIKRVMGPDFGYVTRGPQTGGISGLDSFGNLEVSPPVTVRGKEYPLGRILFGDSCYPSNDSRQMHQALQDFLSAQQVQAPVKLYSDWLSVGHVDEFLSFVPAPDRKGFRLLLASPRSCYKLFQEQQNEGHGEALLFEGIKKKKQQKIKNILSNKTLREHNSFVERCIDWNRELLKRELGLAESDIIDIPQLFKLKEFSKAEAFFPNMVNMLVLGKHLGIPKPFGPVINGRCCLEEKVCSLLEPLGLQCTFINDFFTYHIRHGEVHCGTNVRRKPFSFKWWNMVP
Reported OD 490/630 nm by item:

binder	reported
G8 (antibody, V domains shown, Chicken variable regions in a mouse chimeric antibody (IgG1); also called anti-PAD4 antibody G8) VH: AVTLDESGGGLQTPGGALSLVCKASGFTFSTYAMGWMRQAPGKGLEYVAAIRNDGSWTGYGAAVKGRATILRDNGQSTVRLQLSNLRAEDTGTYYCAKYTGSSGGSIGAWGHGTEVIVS VL: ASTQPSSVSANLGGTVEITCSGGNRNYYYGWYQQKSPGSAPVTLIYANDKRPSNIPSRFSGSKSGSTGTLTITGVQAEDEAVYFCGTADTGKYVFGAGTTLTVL	1.34

What the record says about E9 (antibody, V domains shown, Chicken variable regions in a mouse chimeric antibody (IgG1); also called anti-PAD4 antibody E9) VH: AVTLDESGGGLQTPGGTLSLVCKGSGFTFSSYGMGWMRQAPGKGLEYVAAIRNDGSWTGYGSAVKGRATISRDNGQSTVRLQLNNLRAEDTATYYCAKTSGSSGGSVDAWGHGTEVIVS VL: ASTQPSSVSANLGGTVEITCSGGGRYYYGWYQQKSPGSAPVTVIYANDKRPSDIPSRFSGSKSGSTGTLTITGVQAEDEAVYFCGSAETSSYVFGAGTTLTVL : OD 490/630 nm is 1.36

// sample G9 (antibody, V domains shown, Chicken variable regions in a mouse chimeric antibody (IgG1); also called anti-PAD4 antibody G9) VH: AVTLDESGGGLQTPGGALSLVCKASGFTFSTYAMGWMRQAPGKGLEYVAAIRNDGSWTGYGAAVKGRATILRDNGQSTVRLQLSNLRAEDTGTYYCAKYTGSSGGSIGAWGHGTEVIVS VL: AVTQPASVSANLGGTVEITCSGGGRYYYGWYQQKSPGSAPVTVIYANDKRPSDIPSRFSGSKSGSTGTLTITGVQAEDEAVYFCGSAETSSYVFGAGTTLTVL , its OD 490/630 nm was 1.36

Form: binder = H7 (antibody, V domains shown, Chicken variable regions in a mouse chimeric antibody (IgG1); also called anti-PAD4 antibody H7) VH: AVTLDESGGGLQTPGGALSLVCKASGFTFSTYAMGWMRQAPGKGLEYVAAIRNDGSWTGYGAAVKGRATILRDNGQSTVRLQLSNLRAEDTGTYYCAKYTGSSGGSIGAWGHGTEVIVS VL: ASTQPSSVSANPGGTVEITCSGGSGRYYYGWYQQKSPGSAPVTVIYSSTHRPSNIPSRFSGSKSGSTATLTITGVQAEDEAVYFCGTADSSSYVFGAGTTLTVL ; OD 490/630 nm = 1.35

For record A11 (antibody, V domains shown, Chicken variable regions in a mouse chimeric antibody (IgG1); also called anti-PAD4 antibody A11) VH: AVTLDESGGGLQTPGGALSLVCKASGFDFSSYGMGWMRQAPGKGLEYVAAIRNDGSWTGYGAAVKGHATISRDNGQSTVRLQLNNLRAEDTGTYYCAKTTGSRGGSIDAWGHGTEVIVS VL: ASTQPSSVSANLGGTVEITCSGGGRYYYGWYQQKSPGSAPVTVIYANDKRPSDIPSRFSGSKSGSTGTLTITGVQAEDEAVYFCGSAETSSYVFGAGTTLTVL the listed OD 490/630 nm is 1.31

// sample G6 (antibody, V domains shown, Chicken variable regions in a mouse chimeric antibody (IgG1); also called anti-PAD4 antibody G6) VH: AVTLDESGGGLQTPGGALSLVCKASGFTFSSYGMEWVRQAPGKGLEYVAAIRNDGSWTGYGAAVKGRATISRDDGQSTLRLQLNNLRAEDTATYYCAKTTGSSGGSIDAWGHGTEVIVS VL: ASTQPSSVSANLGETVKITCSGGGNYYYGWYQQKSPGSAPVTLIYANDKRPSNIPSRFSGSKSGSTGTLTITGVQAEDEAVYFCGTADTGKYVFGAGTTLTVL , its OD 490/630 nm was 1.16
